Test Target: EGFR kinase (Homo sapiens, UniProt P00533)
Sequence (P00533 25-1210): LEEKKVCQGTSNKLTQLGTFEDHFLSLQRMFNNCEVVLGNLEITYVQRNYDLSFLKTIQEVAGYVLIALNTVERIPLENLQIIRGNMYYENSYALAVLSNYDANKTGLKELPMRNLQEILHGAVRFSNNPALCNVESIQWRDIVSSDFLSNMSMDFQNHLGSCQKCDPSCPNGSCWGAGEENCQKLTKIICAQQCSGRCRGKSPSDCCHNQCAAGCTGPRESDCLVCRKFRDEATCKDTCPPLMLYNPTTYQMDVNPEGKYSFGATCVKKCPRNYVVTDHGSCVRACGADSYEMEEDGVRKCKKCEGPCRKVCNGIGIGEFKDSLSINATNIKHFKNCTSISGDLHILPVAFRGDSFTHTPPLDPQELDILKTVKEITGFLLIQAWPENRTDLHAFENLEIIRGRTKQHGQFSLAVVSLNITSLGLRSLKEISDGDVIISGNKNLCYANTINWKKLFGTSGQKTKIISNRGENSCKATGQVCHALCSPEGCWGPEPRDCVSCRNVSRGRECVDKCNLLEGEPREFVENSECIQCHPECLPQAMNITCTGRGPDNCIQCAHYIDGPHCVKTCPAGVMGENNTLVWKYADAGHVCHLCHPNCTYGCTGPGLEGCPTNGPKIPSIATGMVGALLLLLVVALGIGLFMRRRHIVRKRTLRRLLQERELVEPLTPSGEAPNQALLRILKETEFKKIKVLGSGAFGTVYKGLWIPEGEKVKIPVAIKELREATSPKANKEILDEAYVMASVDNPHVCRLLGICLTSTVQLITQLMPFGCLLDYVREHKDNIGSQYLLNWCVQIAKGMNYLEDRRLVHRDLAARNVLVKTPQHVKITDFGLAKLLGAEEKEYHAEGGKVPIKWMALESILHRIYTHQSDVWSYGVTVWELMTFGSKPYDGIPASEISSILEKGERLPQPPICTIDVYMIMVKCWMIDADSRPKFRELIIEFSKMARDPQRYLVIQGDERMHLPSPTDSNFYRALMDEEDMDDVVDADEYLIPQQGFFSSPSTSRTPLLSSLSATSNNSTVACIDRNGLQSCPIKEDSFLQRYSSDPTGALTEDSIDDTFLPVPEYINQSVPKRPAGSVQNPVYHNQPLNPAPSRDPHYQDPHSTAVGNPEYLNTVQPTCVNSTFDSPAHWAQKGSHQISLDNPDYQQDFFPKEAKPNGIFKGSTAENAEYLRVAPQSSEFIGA
pIC50: −log10 of the molar value.
Property Name: pIC50

1 = Cc1ccc2nc(C=Cc3ccc(N(C)C)cc3)cc(C(=O)O)c2c1
2 = Cc1ccc2nc(C=Cc3ccc(N(C)C)cc3)cc(-c3nnc(N)s3)c2c1
Prompt line: Could you please tell me which of these two has the higher pIC50: 1 or 2 ? Select an item and report its label.
Response line: 2
(2: 5.95, 1: 5.10)

###

Test system: HCT116
Test Protocol: MTT antitumour (cytotoxicity) assay, HCT116
Type: cell-based
Run Parameters: Homo sapiens, HCT-116, HCT116 cell line, 50% inhibition of tumour cell proliferation, read-out: In vitro cytotoxicity IC50
IC50 values, listed per item
Value expressed in µg/mL; do not type the unit.

Reference set (5 entries):
- Molecule: "Cc1ccc2nc(C=Cc3ccc(N(C)C)cc3)cc(C(=O)NNc3ccccc3)c2c1 [Compound 7b]"
  IC50 / µg/mL: 61.4
- Molecule: "CCOC(=O)C(C#N)C(=O)c1cc(C=Cc2ccc(N(C)C)cc2)nc2ccc(C)cc12 (stereo not shown) [Compound 8b]"
  IC50 / µg/mL: 52.6
- Molecule: "O=c1[nH]cc(F)c(=O)[nH]1 [Compound 5-FU, 5-fluorouracil, reference compound]"
  IC50 / µg/mL: 5.3
- Molecule: "Cc1ccc2nc(C=Cc3ccc(N(C)C)cc3)cc(C(=O)O)c2c1 [Compound 3b]"
  IC50 / µg/mL: 14.8
- Molecule: "Cc1ccc2nc(C=Cc3ccc(N(C)C)cc3)cc(-c3nnc(N)s3)c2c1 [Compound 4b]"
  IC50 / µg/mL: 8.8

Then there is this molecule:
Prompt line: # query: IC50 | item CN(C)c1ccc(C=Cc2cc(-c3nnc(N)s3)c3cc(Br)ccc3n2)cc1 [Compound 4a] | system: HCT116
Response line: 14.2

###

melting point values, listed per item

Reference set (3 entries):
- Molecule: "CC(=O)C(C(C)=O)C(=O)c1cc(C=Cc2ccc(N(C)C)cc2)nc2ccc(C)cc12"
  melting point: "> 300 °C"
- Molecule: "CC(=O)C(C(C)=O)C(=O)c1cc(C=Cc2ccc(N(C)C)cc2)nc2ccc(Br)cc12"
  melting point: "> 300 °C"
- Molecule: "CCOC(=O)C(C#N)C(=O)c1cc(C=Cc2ccc(N(C)C)cc2)nc2ccc(C)cc12 (stereo not shown)"
  melting point: "> 300 °C"

Then there is this molecule:
Prompt line: # get_value(readout='melting point', item= CCOC(=O)C(C#N)C(=O)c1cc(C=Cc2ccc(N(C)C)cc2)nc2ccc(Br)cc12 (stereo not shown) )
Response line: > 300 °C

The values you see were collected from paper PMC7012010.
